Entry source: the supplement of paper PMC10307832

compounds and their reported relative viability
- Tested on: SW 900
- runDescription: relative viability (nuclei count vs DMSO), 5 days (fraction); higher = more cells survive
- testParameters: first compound 0.1 µM

compound	relative viability
NC(=O)Nc1cc(-c2cccc(F)c2)sc1C(=O)N[C@H]1CCCNC1 [AZD7762] + O=C(CCCCCCC(=O)Nc1ccccc1)NO [Vorinostat] (partner 1 µM)	0.545
NC(=O)Nc1cc(-c2cccc(F)c2)sc1C(=O)N[C@H]1CCCNC1 [AZD7762] + N=C(N)NC(=N)NCCc1ccccc1 [Phenformin] (partner 250 µM)	0.65
NC(=O)Nc1cc(-c2cccc(F)c2)sc1C(=O)N[C@H]1CCCNC1 [AZD7762] + CC(=O)Nc1cccc(-n2c(=O)n(C3CC3)c(=O)c3c(Nc4ccc(I)cc4F)n(C)c(=O)c(C)c32)c1 [Trametinib] (partner 0.02 µM)	0.721
NC(=O)Nc1cc(-c2cccc(F)c2)sc1C(=O)N[C@H]1CCCNC1 [AZD7762] + Cc1nc(Nc2ncc(C(=O)Nc3c(C)cccc3Cl)s2)cc(N2CCN(CCO)CC2)n1 [Dasatinib] (partner 0.075 µM)	0.625

====

- System: NCI-H460
- runDescription: relative viability (nuclei count vs DMSO), 5 days (fraction); higher = more cells survive
- testParameters: first compound 0.01581 µM
relative viability: recorded values

compound	relative viability
CC1(C)CCC(c2ccc(Cl)cc2)=C(CN2CCN(c3ccc(C(=O)NS(=O)(=O)c4ccc(N[C@H](CCN5CCOCC5)CSc5ccccc5)c(S(=O)(=O)C(F)(F)F)c4)cc3)CC2)C1 [Navitoclax] + N=C(N)NC(=N)NCCc1ccccc1 [Phenformin] (partner 250 µM)	0.512
CC1(C)CCC(c2ccc(Cl)cc2)=C(CN2CCN(c3ccc(C(=O)NS(=O)(=O)c4ccc(N[C@H](CCN5CCOCC5)CSc5ccccc5)c(S(=O)(=O)C(F)(F)F)c4)cc3)CC2)C1 [Navitoclax] + COc1cc2c(Oc3ccc(NC(=O)C4(C(=O)Nc5ccc(F)cc5)CC4)cc3F)ccnc2cc1OCCCN1CCOCC1 [Foretinib] (partner 0.25 µM)	1.02
CC1(C)CCC(c2ccc(Cl)cc2)=C(CN2CCN(c3ccc(C(=O)NS(=O)(=O)c4ccc(N[C@H](CCN5CCOCC5)CSc5ccccc5)c(S(=O)(=O)C(F)(F)F)c4)cc3)CC2)C1 [Navitoclax] + CC(=O)Nc1cccc(-n2c(=O)n(C3CC3)c(=O)c3c(Nc4ccc(I)cc4F)n(C)c(=O)c(C)c32)c1 [Trametinib] (partner 0.02 µM)	0.237
CC1(C)CCC(c2ccc(Cl)cc2)=C(CN2CCN(c3ccc(C(=O)NS(=O)(=O)c4ccc(N[C@H](CCN5CCOCC5)CSc5ccccc5)c(S(=O)(=O)C(F)(F)F)c4)cc3)CC2)C1 [Navitoclax] + Cc1cc(Nc2cc(N3CCN(C)CC3)nc(Sc3ccc(NC(=O)C4CC4)cc3)n2)n[nH]1 [Tozasertib] (partner 0.1 µM)	0.327
CC1(C)CCC(c2ccc(Cl)cc2)=C(CN2CCN(c3ccc(C(=O)NS(=O)(=O)c4ccc(N[C@H](CCN5CCOCC5)CSc5ccccc5)c(S(=O)(=O)C(F)(F)F)c4)cc3)CC2)C1 [Navitoclax] + Nc1nc2[nH]cc(CCc3ccc(C(=O)N[C@@H](CCC(=O)O)C(=O)O)cc3)c2c(=O)[nH]1 [Pemetrexed] (partner 0.2 µM)	0.067
CC1(C)CCC(c2ccc(Cl)cc2)=C(CN2CCN(c3ccc(C(=O)NS(=O)(=O)c4ccc(N[C@H](CCN5CCOCC5)CSc5ccccc5)c(S(=O)(=O)C(F)(F)F)c4)cc3)CC2)C1 [Navitoclax] + Cc1nc(Nc2ncc(C(=O)Nc3c(C)cccc3Cl)s2)cc(N2CCN(CCO)CC2)n1 [Dasatinib] (partner 0.075 µM)	0.609
CC1(C)CCC(c2ccc(Cl)cc2)=C(CN2CCN(c3ccc(C(=O)NS(=O)(=O)c4ccc(N[C@H](CCN5CCOCC5)CSc5ccccc5)c(S(=O)(=O)C(F)(F)F)c4)cc3)CC2)C1 [Navitoclax] + Nc1ncn([C@H]2C[C@H](O)[C@@H](CO)O2)c(=O)n1 [Decitabine] (partner 2 µM)	0.523
CC1(C)CCC(c2ccc(Cl)cc2)=C(CN2CCN(c3ccc(C(=O)NS(=O)(=O)c4ccc(N[C@H](CCN5CCOCC5)CSc5ccccc5)c(S(=O)(=O)C(F)(F)F)c4)cc3)CC2)C1 [Navitoclax] + CS(=O)(=O)CCNCc1ccc(-c2ccc3ncnc(Nc4ccc(OCc5cccc(F)c5)c(Cl)c4)c3c2)o1 [Lapatinib] (partner 2 µM)	0.917
